experiment: reversal of MRP1-mediated doxorubicin resistance, pilot screen, H69AR cells, doxorubicin co-treatment (AID 601); settings: H69AR cells + 2 uM doxorubicin, CellTiter-Glo, 72 h; measured here: viability with 2 uM doxorubicin; at 10 µM; stronger effect = lower value
A collection of compounds and their measured viability

- smiles: "CCCCn1c(SCc2cccnc2)nc2c1c(=O)n(C)c(=O)n2C"
  viability, %: 79.2
- smiles: "CCOC(=O)CSc1nc2ccccc2c(=O)n1NC(=O)c1ccccc1"
  viability, %: 80.4
- smiles: "CCCc1nc2ccccc2c2nc(N)nn12"
  viability, %: 81.8

====

viability values by entry
assay: HUVEC growth inhibition – cell-based, human, primary screen (AID 575); details: HUVEC proliferation, CellTiter-Glo luminescence, 72 h; at 10 µM; stronger effect = lower value;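 also: 100% = median of untreated cell wells with 0.1% DMSO on each plate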

- compound: "CC1(C)CC(=O)C(CC(=O)NC(=O)NCc2ccccc2)=C(O)C1"
  viability, %: 81.9
- compound: "O=S(=O)(c1ccc2c(c1)OCCO2)N(Cc1ccc(F)cc1)Cc1nnc(-c2cccs2)o1"
  viability, %: 81
- compound: "OC1C=CSc2nc3ccccc3n21 (stereo not given)"
  viability, %: 79
- compound: "CCOC(=O)c1c(C(F)(F)C(F)(F)C(F)(F)C(F)(F)F)n[nH]c1C"
  viability, %: 79.5
- compound: "CCCc1nc2ccccc2c(=O)n1NC(=O)c1c(O)c2cccc3c2n(c1=O)CCC3"
  viability, %: 83.5
- compound: "CCOC(=O)c1c(N)c(C#N)nn1-c1ccccc1C(=O)OC"
  viability, %: 109
- compound: "c1ccc(-c2cc(CSc3nc4ccccc4[nH]3)on2)cc1"
  viability, %: 91.8
- compound: "O=C(O)Cn1nc2ccccc2n1"
  viability, %: 108
- compound: "CC(C)=CCSc1nnc(CCNC(=O)OC(C)(C)C)o1"
  viability, %: 87.2
- compound: "CCn1cc(C(=O)OCC(=O)OC2CC(C)CCC2C(C)C)c(=O)c2ccc(C)nc21 (stereo not given)"
  viability, %: 35.3

====

assay: growth inhibitors of H69AR lung tumor, primary screen, human, duplicate replicates (AID 580); details: H69AR lung tumor cells viability, ATP luminescence, 72 h; at 10 µM; stronger effect = lower value;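 also: 100% = mean luminescence of untreated wells and 0% = no signal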
Activity calls are given as the source filed them.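 Rule for the calls: active = viability at or under a set limit in both replicates, limit being median viability minus 3 SD (cut at about 48% in these data, passing the limit was not always enough); inconclusive = at or under the limit in just one replicate; inactive = at or above the limit in both replicates.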
quantity measured: viability

- smiles: "CCn1cnc2cc(NCc3cccc(OC)c3O)ccc21"
  reported result: "92.3% (inactive)"
- smiles: "CN(C)c1nc(Oc2ccc(N)cc2)nc(N(C)C)n1"
  reported result: "90.1% (inactive)"
- smiles: "CCCCCn1c(CN2CCN(c3cccc(Cl)c3)CC2)nc2c1c(=O)n(C)c(=O)n2C"
  reported result: "88% (inactive)"

====

test: reversal of MRP1-mediated doxorubicin resistance, pilot screen, H69AR cells, doxorubicin co-treatment (AID 601); details: H69AR cells, CellTiter-Glo, 72 h; compound alone cytotoxicity; at 10 µM
Rule: viability below 90% gives TRUE, anything at or above gives FALSE.

- molecule: "COC(=O)Cc1c(C)nc2nc[nH]n2c1=O"
  class name: "FALSE"
- molecule: "CCOC(=O)c1cccc(NC(=O)C2CCN(S(=O)(=O)c3cccs3)CC2)c1"
  class name: "TRUE"
- molecule: "Cc1ccccc1-c1nc(CS(=O)(=O)CC(=O)N(C)C2CCCCC2)c(C)o1"
  class name: "FALSE"
- molecule: "Cc1cccc(-n2nnnc2SCc2csc(-c3ccccc3)n2)c1"
  class name: "FALSE"
- molecule: "Cc1ccc(C(=O)/C=C/Nc2cccc(O)c2)cc1"
  class name: "TRUE"
- molecule: "CCOCCCNC(=O)C1CC(=O)N(C2CCCC2)C1 (centres undefined)"
  class name: "FALSE"
- molecule: "CC(=O)c1ccc2c3c(cccc13)C(=O)N(c1c(C)nn(C)c1C)C2=O"
  class name: "FALSE"
- molecule: "COc1ccccc1NC(=O)C1=C(C)NC(SCC(=O)c2ccc(C)cc2)=C(C#N)C1c1ccco1 (centres undefined)"
  class name: "TRUE"

====

Recorded measurements of viability, one per entry
experiment: SK-BR-3 cell growth inhibitors, pilot screen, 24 h, human (AID 572); conditions: SK-BR-3 viability, CellTiter-Glo luminescence, at 10 µM, stronger effect = lower value;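 also: compound exposure lasted between 18 and 24 h rather than exactly 24 h; 100% = carrier-treated control wells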
Calls of active or inactive are those of the source.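 The calls were made as follows: active = viability at or below 10% of carrier control in both of two separate runs; inconclusive = viability at or below 10% in only one of the two runs; inactive = the rest.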
quantity measured: viability

- compound: "CCOc1cc2oc(=O)c3c(c2cc1Cl)CCC3"
  quantity measured: "viability"
  reported result: "106% (inactive)"
- compound: "OC(CN1CCN(c2ccccc2)CC1)c1ccc2c(c1)CCN2 (centres undefined)"
  quantity measured: "viability"
  reported result: "87.5% (inactive)"
- compound: "C=CCSc1nnc(NC(=O)c2ccc(S(=O)(=O)NCC3CCCO3)cc2)s1 (centres undefined)"
  quantity measured: "viability"
  reported result: "97% (inactive)"
- compound: "CC1=C(C)C(=O)C(CCCCC#CCCCC#CCO)=C(C)C1=O"
  quantity measured: "viability"
  reported result: "62% (inactive)"
- compound: "O=C(c1nn2cccnc2c1Cl)N1CCN(c2ccccc2)CC1"
  quantity measured: "viability"
  reported result: "66% (inactive)"
- compound: "COCCN(CCOC)C(=O)c1sc2nc(-c3ccccc3)cn2c1C"
  quantity measured: "viability"
  reported result: "93% (inactive)"
- compound: "Cn1c(=O)[nH]c(=O)c2c1nc(Br)n2CCCSc1nc2ccccc2o1"
  quantity measured: "viability"
  reported result: "89% (inactive)"
- compound: "CCN1C(=O)/C(=C/N(C)c2ccccc2)OC1=S"
  quantity measured: "viability"
  reported result: "97% (inactive)"
- compound: "CCOc1ccc(NC(=O)C2CC(=O)N(CC)C(=Nc3ccc4c(c3)OCO4)S2)cc1 (centres undefined)"
  quantity measured: "viability"
  reported result: "87% (inactive)"
- compound: "COc1cc(OC)cc(-c2nc3nc(C)c(CCC(=O)O)c(C)n3n2)c1"
  quantity measured: "viability"
  reported result: "106% (inactive)"
- compound: "NCc1ccc(S(N)(=O)=O)cc1"
  quantity measured: "viability"
  reported result: "124% (inactive)"
- compound: "Cc1ccccc1NC(=O)CN1CCC(NC(=O)Nc2ccccc2)CC1"
  quantity measured: "viability"
  reported result: "108% (inactive)"
- compound: "CC(=O)Nc1ccccc1OCC(=O)c1cc(C)n(Cc2cccs2)c1C"
  quantity measured: "viability"
  reported result: "92% (inactive)"
- compound: "O=c1c(-c2ccc(F)cc2)coc2c3c(ccc12)OCCO3"
  quantity measured: "viability"
  reported result: "100% (inactive)"
- compound: "COC(=O)c1[nH]c2ccc(C)cc2c1NC(=O)CN1CCCC(C)(C)C1"
  quantity measured: "viability"
  reported result: "125% (inactive)"
- compound: "CN1C(=O)C(O)(CC(=O)c2ccc3c(c2)OCO3)c2ccccc21 (centres undefined)"
  quantity measured: "viability"
  reported result: "99.5% (inactive)"
- compound: "O=C(Nc1ccc(SC(F)F)cc1)c1ccc2nccnc2c1"
  quantity measured: "viability"
  reported result: "91.5% (inactive)"
- compound: "COc1ccc(CC(=O)Nc2ccc(OC)c(NC(=O)c3ccco3)c2)cc1"
  quantity measured: "viability"
  reported result: "91% (inactive)"
- compound: "CC1CCCCC1NC(=O)COc1ccc(-n2cnnn2)cc1 (centres undefined)"
  quantity measured: "viability"
  reported result: "100% (inactive)"
- compound: "CC(C)C(C(=O)Nc1ccc2c(c1)OCO2)N1C(=O)c2ccccc2C1=O (centres undefined)"
  quantity measured: "viability"
  reported result: "122% (inactive)"
- compound: "CCCc1cc(Nc2cccc(OC)c2)n2ncnc2n1"
  quantity measured: "viability"
  reported result: "83% (inactive)"
- compound: "Cc1nc2scc(-c3ccco3)c2c(=O)n1/N=C/N(C)C"
  quantity measured: "viability"
  reported result: "87% (inactive)"
- compound: "CCOC(=O)Nc1cc(OC)c(OC)cc1Cc1nccc2cc(OC)c(OC)cc12"
  quantity measured: "viability"
  reported result: "113% (inactive)"
- compound: "COC(=O)Nc1sc2c(c1C(N)=O)CCCCCC2"
  quantity measured: "viability"
  reported result: "89% (inactive)"
- compound: "COCCCC/C(=N\\OCCN)c1ccc(C(F)(F)F)cc1"
  quantity measured: "viability"
  reported result: "84% (inactive)"
- compound: "CN(C)CCC(c1ccc(Br)cc1)c1ccccn1 (centres undefined)"
  quantity measured: "viability"
  reported result: "110% (inactive)"
- compound: "CC(=O)Nc1c(C(=O)O)[nH]c2ccccc12"
  quantity measured: "viability"
  reported result: "103% (inactive)"
- compound: "CCOc1ccccc1CN(Cc1ccco1)S(=O)(=O)c1ccc(-n2cnnn2)c(OC)c1"
  quantity measured: "viability"
  reported result: "82.5% (inactive)"
- compound: "c1ccc2c(SCc3cn4cccnc4n3)ncnc2c1"
  quantity measured: "viability"
  reported result: "108% (inactive)"
- compound: "O=C(O)CCn1c(=O)c2ccccc2c2ccccc2c1=O"
  quantity measured: "viability"
  reported result: "87% (inactive)"
- compound: "Cc1cc(C(=O)COc2cccc3cccnc23)c(C)n1C"
  quantity measured: "viability"
  reported result: "95% (inactive)"
- compound: "COc1ccc(Cl)c(NC(=O)NCCN2CCN(c3ccccc3)CC2)c1"
  quantity measured: "viability"
  reported result: "102% (inactive)"
- compound: "CCS(=O)(=O)N1CCC(C(=O)NC2CCCCC2)CC1"
  quantity measured: "viability"
  reported result: "113% (inactive)"
- compound: "CCCN1C(=O)c2cc(C(=O)O)ccc2C1O (centres undefined)"
  quantity measured: "viability"
  reported result: "113% (inactive)"
- compound: "CC(=O)Nc1ccccc1O"
  quantity measured: "viability"
  reported result: "111% (inactive)"
- compound: "CCOCCCNC(=O)C1CCC(CNS(=O)(=O)c2cccc3nsnc23)CC1 (centres undefined)"
  quantity measured: "viability"
  reported result: "102% (inactive)"
- compound: "CC1(C)O[C@@H]2C[C@H]3[C@@H]4C[C@H](F)C5=CC(=O)CC[C@]5(C)[C@H]4[C@@H](O)C[C@]3(C)[C@]2(C(=O)CO)O1"
  quantity measured: "viability"
  reported result: "104% (inactive)"
- compound: "CCCCCCn1c(CN2CCCC(C)C2)nc2c1c(=O)n(C)c(=O)n2C (centres undefined)"
  quantity measured: "viability"
  reported result: "57% (inactive)"
- compound: "CCn1nc(C(=O)O)c(=O)c2cc3c(cc21)OCO3"
  quantity measured: "viability"
  reported result: "69% (inactive)"

Where do the numbers come from? From PubChem BioAssay.
